measurement-kind: melting point (°C)
Dear colleague, please return just the value in °C, with no unit written.

Quick one: melting point of c1cc(Nc2ccc(NCCc3cnc4n3CCCC4)cc2)ccn1 [Compound 3] ? 256

Lookup c1cnc2[nH]cc(CCNc3ccc(Nc4ccncc4)cc3)c2c1 [Compound 2] 182

----------
Answer each item with its documented IC50.
- Tested on: U87MG cells
- protocol: Proliferation assay (MTT) on U87MG tumour cells
- Type: cell-based
- conditions: Homo sapiens, U-87 MG, 96 h, 96-well plates, 4 days of incubation, read-out: cell proliferation pIC50 96 well (converted)
The reply should consist of the numeric value with the unit placed after it.

Form: Entry = c1ccc2c(CCNc3ccc(Nc4ccncc4)cc3)coc2c1 | System = U87MG cells | IC50 = ____ 3.24 µM

Likewise for COc1ccc2c(CCNc3ccc(Nc4ccncc4)cc3)coc2c1 ? 4.47 µM

Similarly, c1cc(Nc2ccc(NCCc3cnc4n3CCCC4)cc2)ccn1 ? 7.08 µM

Then what about the compound c1cnc2[nH]cc(CCNc3ccc(Nc4ccncc4)cc3)c2c1 ? 4.37 µM
